Target: RARα ligand-binding domain (GST-RAR-α-LBD) (Homo sapiens)
Construct: purchased Invitrogen
Sequence (P10276 183-417 limits assumed): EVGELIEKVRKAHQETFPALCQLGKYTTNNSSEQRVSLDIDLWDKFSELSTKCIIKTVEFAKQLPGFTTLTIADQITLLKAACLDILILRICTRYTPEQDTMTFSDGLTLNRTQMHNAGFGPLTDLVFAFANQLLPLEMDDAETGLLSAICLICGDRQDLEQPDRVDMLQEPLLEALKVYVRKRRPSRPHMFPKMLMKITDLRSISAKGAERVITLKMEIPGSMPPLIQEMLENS
Assay: LanthaScreen TR-FRET RARα co-activator (receptor binding) assay
Format: biochemical
Details: in words, Fig. 6A
experimental.readout: binding-curve upper asymptote (coactivator recruitment), RARα

Consider the reported binding-curve upper asymptote (coactivator recruitment), RARα for these compounds:
CCOCCOc1nc(-c2ccc(C(=O)O)cc2)sc1C : high curve asymptotes
Cc1sc(-c2ccc(C(=O)O)cc2)nc1-c1ccccc1 : lower asymptotes
CCOC(=O)c1ccc(-c2nc(-c3ccc4c(c3)C(C)(C)CCC4(C)C)c(C)s2)cc1 : lower asymptotes
CC1=C(/C=C/C(C)=C/C=C/C(C)=C/C(=O)O)C(C)(C)CCC1 [ATRA, all-trans-retinoic acid, reference compound] : high curve asymptotes
Cc1sc(-c2ccc(C(=O)O)cc2)nc1-c1ccc2c(c1)C(C)(C)CCC2(C)C : high curve asymptotes

Lab note: next compound to report on.
Requested field: binding-curve upper asymptote (coactivator recruitment), RARα. Item: CCOC(=O)c1ccc(-c2nc(-c3ccccc3)c(C)s2)cc1
lower asymptotes

* * *

system: TERA2.cl.SP12 cells; assay: Immunocytochemistry for A2B5, TUJ-1 and cytokeratin 8; assay type: cell-based, human; details: 10 μM, up to 3 weeks, Fig. 7C
experimental.readout: neuronal differentiation by TUJ-1 staining

CCOCCOc1nc(-c2ccc(C(=O)O)cc2)sc1C : very low activity
CC1=C(/C=C/C(C)=C/C=C/C(C)=C/C(=O)O)C(C)(C)CCC1 [ATRA, all-trans-retinoic acid, reference compound] : most effective
Cc1sc(-c2ccc(C(=O)O)cc2)nc1-c1ccc2c(c1)C(C)(C)CCC2(C)C : most effective
CCOC(=O)c1ccc(-c2nc(-c3ccccc3)c(C)s2)cc1 : very low activity

* * *

target: RARβ ligand-binding domain (GST-RAR-β-LBD) (Homo sapiens); construct: purchased Invitrogen; assay: LanthaScreen TR-FRET RARβ co-activator (receptor binding) assay; type: biochemical; conditions: in words, Fig. 6B
experimental.readout: binding-curve upper asymptote (coactivator recruitment), RARβ

Cc1sc(-c2ccc(C(=O)O)cc2)nc1-c1ccccc1 [GZ24] : very low asymptotes
CCOCCOc1nc(-c2ccc(C(=O)O)cc2)sc1C [GZ18] : very low asymptotes

* * *

Reported log10 of EC50 values follow for various compounds
biological target: RARβ ligand-binding domain (GST-RAR-β-LBD) (Homo sapiens, UniProt P10826); experiment: LanthaScreen TR-FRET RARβ co-activator (receptor binding) assay; conditions: estimated EC50, TR-FRET co-activator assay, 4 h incubation; read-out: EC50 (95% confidence range) RARβ
Sequence (P10826 183-417 limits assumed): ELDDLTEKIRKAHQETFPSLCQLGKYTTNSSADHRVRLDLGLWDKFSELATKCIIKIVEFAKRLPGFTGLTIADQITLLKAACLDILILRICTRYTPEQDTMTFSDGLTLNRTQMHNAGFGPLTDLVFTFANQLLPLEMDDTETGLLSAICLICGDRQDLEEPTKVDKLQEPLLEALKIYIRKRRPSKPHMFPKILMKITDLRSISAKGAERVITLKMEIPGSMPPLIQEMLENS
Each number you see is log10 of EC50, and the unit inside the log is nM.

Field: example entries. Status: answers known.
CCOCCOc1nc(-c2ccc(C(=O)O)cc2)sc1C [GZ18] : 1.75
CCOC(=O)c1ccc(-c2nc(-c3ccccc3)c(C)s2)cc1 [GZ22] : 2.13
CCOC(=O)c1ccc(-c2nc(-c3ccc4c(c3)C(C)(C)CCC4(C)C)c(C)s2)cc1 [GZ23] : 1.08
Cc1sc(-c2ccc(C(=O)O)cc2)nc1-c1ccc2c(c1)C(C)(C)CCC2(C)C [GZ25] : 1.04

Kindly review the next compound as well.
# query: log10 of EC50 | item Cc1sc(-c2ccc(C(=O)O)cc2)nc1-c1ccccc1 [GZ24] | system: RARβ ligand-binding domain (GST-RAR-β-LBD) (Homo sapiens, UniProt P10826)
1.89
